Biological target: T1, Cyno CD33 full length, expressed on HEK293F cells (cynomolgus monkey)
T1 construct: HEK293F cells transduced with lentivirus containing full length cyno CD33 (Genbank XP_005590138.1); also called cyCD33
Experiment: flow cytometry, HEK293F cells expressing cyno CD33
endpoint.label: MFI at 6 nM mAb (MFI)
# unit: MFI | format: bare number

binder="C33B54 (antibody, IgG1, V domains shown, huIgG1 F405L; also called C33F59; C33H44/C33L10) VH: QVQLQQSGPGLVKPSQTLSLTCAISGDSVSSNSAAWNWIRQSPSRGLEWLGRTYYRSKWYNDYAVSVRSRITINPDTSKNQFSLQLNSVTPEDTAVYHCARETMFRGLMDYWGQGTLVTVSS VL: SYVLTQPPSVSVAPGQTARITCGGSNIGSKSVHWYQQKPGQAPVMVVYDDSDRPSGIPERFSGSNSGNTATLTISRVEAGDEADYYCQVWDSSSDVVFGGGTKLTVL" output_unit=MFI reported_value=43000

Continue with the binder presented below.
What value of MFI at 6 nM mAb has been reported for the following binder? C33B101 (antibody, V domains shown, huIgG1 F405L; 260 is used; also called C33F106; C33H69/C4LL152) VH: QLQLQESGPGLVKPSETLSLTCTVSGGSISSSSYYWGWIRQPPGKGLDWIGSINYSGSTYYNPSLKSRVTISVDTSKIQFSLKLRSVTAADTAVYYCARLDGYESPFDYWGQGTLVTVSS VL: DIQMTQSPSSVSASVGDRVTITCRASQGISSWLAWYQQKPGKAPKLLIYAASSLQSGVPSRFSGSGSGTDFTLTISSLQPEDFATYYCQQANSFPFTFGPGTKVDIK
46100
